Measured values drawn from the nanobody polyreactivity screen of Harvey et al. (2022) for this set.

# measurement_description: yeast display, Sf9 membrane polyspecificity reagent, FACS + sequencing; frameworks hold sequencing errors

sequence_input | polyreactivity (PSR sort gate)
QVQLVESGGGLVQAGGSLRLSCAASGFTIYSYAKAWYRQAPGKERELVAAITRGSSTNYADSVKGRFTISRDNAKNTVYLQMNSLKPEDTAVYYCNRGGWRQYDSWGQGTQVTVSS | high polyreactivity
QVQLVESGGGLVQAGGSLRLSSAASGSILWQYAMGWYRQAPGKERELVAAITYSGGSTHYADSVKGRFTISRDNAKNTVYLQMNSLKPEDTAVYYCAAGYWSRYAALRYDHWGQGTQVTVSS | low polyreactivity
QVQLVDSGGGLVQAGGILRLSCAASGRTFTYYTMGWYRQAPGKESEMVAAITWSGGRTYYADSVKGRFTISRDNAKNTVYLQMNILKPEDTAVYYCAAYEIYYEFDSWGQGTQVTVSS | low polyreactivity
QVQLVESGGGLVQAGGSLRLSCAASGRAFKRYAMGWYRQAPGKERELVAAITRSGGSTYYADSVTGRFTISRDKAKNTVYLQMNSLKPEDTAVYYCATRSYNNELEYWGQGTQVTVSS | high polyreactivity
QVQLVESGGGLVQAGGSLRLSCAASGIIFRVYTMGWYRQAPGKERELVATIRTSGDSTYYADSVKGRFTISRDNAKNTVYLQMNSLKPEDTAVYYCAKRRNYWHYYWGQGTQVTVSS | high polyreactivity
